The measurements presented in this section are drawn from ChEMBL document CHEMBL3804761.

# testDescription: Plasma concentration in mouse at 20 mg/kg, po administered through gavage after 0.083 hrs by LC-MS/MS analysis
# Assay type: ADME, organism-based
attributeMeasured: concentration at 0.083 h (ng/mL)
Please give a number only; it is taken to be in ng/mL.

IN: Entry CC(C)[C@@]12C[C@@H](NC(=O)CO)[C@@](C)(O1)[C@@H]1CC[C@@H](C)[C@H]1[C@@H]2OC(=O)/C=C/c1ccccc1 : reported concentration at 0.083 h = ?
OUT: 10

###

# testDescription: Plasma concentration in mouse at 20 mg/kg, po administered through gavage after 4 hrs by LC-MS/MS analysis
# Type: ADME, organism-based
attributeMeasured: concentration at 4 h (ng/mL)
Please give a number only; it is taken to be in ng/mL.

IN: Entry CC(C)[C@@]12C[C@@H](NC(=O)CO)[C@@](C)(O1)[C@@H]1CC[C@@H](C)[C@H]1[C@@H]2OC(=O)/C=C/c1ccccc1 : reported concentration at 4 h = ?
OUT: 59

###

# testDescription: Growth inhibition of human SNB19 cells incubated for 48 hrs by sulforhodamine B assay
# Assay type: functional
# appliedConditions: SNB-19, 48 h, read-out: pTGI (converted)
Hi there, I'd appreciate the recorded TGI for every entry that follows.

IN: Entry C/C(=C\C(=O)O[C@H]1[C@@H]2[C@H](C)CC[C@H]2[C@]2(C)O[C@@]1(C(C)C)C[C@H]2NC(=O)CO)c1ccccc1 : reported TGI = ?
OUT: > 100 µM

IN: Likewise for CC(C)[C@@]12C[C@@H](NC(=O)CO)[C@@](C)(O1)[C@@H]1CC[C@@H](C)[C@H]1[C@@H]2OC(=O)c1ccc2ccccc2c1 ?
OUT: 31.6 µM

IN: Likewise for CC(C)[C@@]12C[C@@H](NC(=O)CO)[C@@](C)(O1)[C@@H]1CC[C@@H](C)[C@H]1[C@@H]2OC(=O)/C=C/c1ccccc1 ?
OUT: > 50.1 µM

IN: Likewise for CC(C)[C@@]12C[C@@H](NC(=O)CO)[C@@](C)(O1)[C@@H]1CC[C@@H](C)[C@H]1[C@@H]2OC(=O)/C=C/C1CCCCC1 ?
OUT: > 44.7 µM

###

# testDescription: Growth inhibition of human DU145 cells incubated for 48 hrs by sulforhodamine B assay
# Type: functional
# appliedConditions: DU-145, 48 h, read-out: pTGI (converted)
Hi there, I'd appreciate the recorded TGI for every entry that follows.

IN: Entry C/C(=C\C(=O)O[C@H]1[C@@H]2[C@H](C)CC[C@H]2[C@]2(C)O[C@@]1(C(C)C)C[C@H]2NC(=O)CO)c1ccccc1 : reported TGI = ?
OUT: > 100 µM

IN: Likewise for CC(C)[C@@]12C[C@@H](NC(=O)CO)[C@@](C)(O1)[C@@H]1CC[C@@H](C)[C@H]1[C@@H]2OC(=O)/C=C/C1CCCCC1 ?
OUT: > 44.7 µM

IN: Likewise for CC(C)[C@@]12C[C@@H](NC(=O)CO)[C@@](C)(O1)[C@@H]1CC[C@@H](C)[C@H]1[C@@H]2OC(=O)c1ccc2ccccc2c1 ?
OUT: 30.2 µM

IN: Likewise for CC(C)[C@@]12C[C@@H](NC(=O)CO)[C@@](C)(O1)[C@@H]1CC[C@@H](C)[C@H]1[C@@H]2OC(=O)/C=C/c1ccccc1 ?
OUT: > 50.1 µM

###

# testDescription: Growth inhibition of human SNB19 cells incubated for 48 hrs by sulforhodamine B assay
# Type: functional
# appliedConditions: SNB-19, 48 h, read-out: pLC50 (the source's name) (converted)
attributeMeasured: CC50

IN: Entry C/C(=C\C(=O)O[C@H]1[C@@H]2[C@H](C)CC[C@H]2[C@]2(C)O[C@@]1(C(C)C)C[C@H]2NC(=O)CO)c1ccccc1 : reported CC50 = ?
OUT: > 100 µM

IN: Likewise for CC(C)[C@@]12C[C@@H](NC(=O)CO)[C@@](C)(O1)[C@@H]1CC[C@@H](C)[C@H]1[C@@H]2OC(=O)/C=C/C1CCCCC1 ?
OUT: > 44.7 µM

IN: Likewise for CC(C)[C@@]12C[C@@H](NC(=O)CO)[C@@](C)(O1)[C@@H]1CC[C@@H](C)[C@H]1[C@@H]2OC(=O)/C=C/c1ccccc1 ?
OUT: > 50.1 µM

IN: Likewise for CC(C)[C@@]12C[C@@H](NC(=O)CO)[C@@](C)(O1)[C@@H]1CC[C@@H](C)[C@H]1[C@@H]2OC(=O)c1ccc2ccccc2c1 ?
OUT: 60.3 µM

###

# testDescription: Growth inhibition of human MOLT4 cells incubated for 48 hrs by sulforhodamine B assay
# Format: functional
# appliedConditions: MOLT-4, 48 h, read-out: pTGI (converted)
Hi there, I'd appreciate the recorded TGI for every entry that follows.

IN: Entry C/C(=C\C(=O)O[C@H]1[C@@H]2[C@H](C)CC[C@H]2[C@]2(C)O[C@@]1(C(C)C)C[C@H]2NC(=O)CO)c1ccccc1 : reported TGI = ?
OUT: 81.3 µM

IN: Likewise for CC(C)[C@@]12C[C@@H](NC(=O)CO)[C@@](C)(O1)[C@@H]1CC[C@@H](C)[C@H]1[C@@H]2OC(=O)/C=C/c1ccccc1 ?
OUT: > 50.1 µM

IN: Likewise for CC(C)[C@@]12C[C@@H](NC(=O)CO)[C@@](C)(O1)[C@@H]1CC[C@@H](C)[C@H]1[C@@H]2OC(=O)c1ccc2ccccc2c1 ?
OUT: 40.7 µM

IN: Likewise for CC(C)[C@@]12C[C@@H](NC(=O)CO)[C@@](C)(O1)[C@@H]1CC[C@@H](C)[C@H]1[C@@H]2OC(=O)/C=C/C1CCCCC1 ?
OUT: > 44.7 µM

###

Hi there, I'd appreciate the recorded GI50 for every entry that follows.
# Tested on: KM12
# testDescription: Growth inhibition of human KM12 cells incubated for 48 hrs by sulforhodamine B assay
# Format: functional
# appliedConditions: KM12, 48 h

IN: Give the reported GI50 for CC(C)[C@@]12C[C@@H](NC(=O)CO)[C@@](C)(O1)[C@@H]1CC[C@@H](C)[C@H]1[C@@H]2OC(=O)/C=C/c1ccccc1 (system: KM12).
OUT: 20 µM

IN: Likewise for C/C(=C\C(=O)O[C@H]1[C@@H]2[C@H](C)CC[C@H]2[C@]2(C)O[C@@]1(C(C)C)C[C@H]2NC(=O)CO)c1ccccc1 ?
OUT: 33.9 µM

IN: Likewise for CC(C)[C@@]12C[C@@H](NC(=O)CO)[C@@](C)(O1)[C@@H]1CC[C@@H](C)[C@H]1[C@@H]2OC(=O)/C=C/C1CCCCC1 ?
OUT: > 44.7 µM

IN: Likewise for CC(C)[C@@]12C[C@@H](NC(=O)CO)[C@@](C)(O1)[C@@H]1CC[C@@H](C)[C@H]1[C@@H]2OC(=O)c1ccc2ccccc2c1 ?
OUT: 17.4 µM

###

Hi there, I'd appreciate the recorded growth at 10 µM for every entry that follows.
# System: NCI/ADR-RES
# testDescription: Growth inhibition of human NCI/ADR-RES cells assessed as cell growth at 10 uM incubated for 48 hrs by sulforhodamine B assay relative to control
# Format: functional
# appliedConditions: read-out: Activity
Please give a number only; it is taken to be in %.

IN: Entry CC(C)[C@@]12C[C@@H](NC(=O)CO)[C@@](C)(O1)[C@@H]1CC[C@@H](C)[C@H]1[C@@H]2OC(=O)/C=C/C1CCCCC1 : reported growth at 10 µM = ?
OUT: 94.8

IN: Likewise for C/C(=C\C(=O)O[C@H]1[C@@H]2[C@H](C)CC[C@H]2[C@]2(C)O[C@@]1(C(C)C)C[C@H]2NC(=O)CO)c1ccccc1 ?
OUT: 72.2

IN: Likewise for CC(C)[C@@]12C[C@@H](NC(=O)CF)[C@@](C)(O1)[C@@H]1CC[C@@H](C)[C@H]1[C@@H]2OC(=O)/C=C/c1ccccc1 ?
OUT: 98.5

IN: Likewise for CC(C)[C@@]12C[C@@H](NC(=O)CO)[C@@](C)(O1)[C@@H]1CC[C@@H](C)[C@H]1[C@@H]2OC(=O)c1ccc2ccccc2c1 ?
OUT: 46.8

IN: Likewise for CC(C)[C@@]12C[C@@H](NC(=O)CO)[C@@](C)(O1)[C@@H]1CC[C@@H](C)[C@H]1[C@@H]2OC(=O)/C=C/c1ccccc1 ?
OUT: 42.9

###

# Test system: SK-MEL-5
# testDescription: Growth inhibition of human SK-MEL-5 cells incubated for 48 hrs by sulforhodamine B assay
# Format: functional
# appliedConditions: SK-MEL-5, 48 h
Hi there, I'd appreciate the recorded LC50 for every entry that follows.
Please give a number only; it is taken to be in µM.

IN: Entry C/C(=C\C(=O)O[C@H]1[C@@H]2[C@H](C)CC[C@H]2[C@]2(C)O[C@@]1(C(C)C)C[C@H]2NC(=O)CO)c1ccccc1 : reported LC50 = ?
OUT: 95.5

IN: Likewise for CC(C)[C@@]12C[C@@H](NC(=O)CO)[C@@](C)(O1)[C@@H]1CC[C@@H](C)[C@H]1[C@@H]2OC(=O)c1ccc2ccccc2c1 ?
OUT: 56.2
